B1: Hairpin Ribozyme (parent)
chain: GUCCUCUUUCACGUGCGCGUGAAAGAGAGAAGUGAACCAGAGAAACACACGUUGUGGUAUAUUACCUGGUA

Variants of: B1
Assay: self-cleavage, relative activity (ratio to wild type); higher = more cleavage; co-transcriptional
List of self-cleavage values.
reported endpoint: self-cleavage

> print(dat)
    mutation.notation  result
 1          U52C U55A   0.318
 2          C66A G68C   0.161
 3          A24C A36G   0.928
 4           U2G G32U   0.119
 5          C46G U58G   0.112
 6          U52G G68C   0.283
 7          U20A A30C   0.253
 8          G32C G40A   0.164
 9          G25A U58G   0.496
10           C4G C66G   0.209
11          G13U A39C   0.498
12           U7A A35C    1.28
13          G40C U58C  0.0707
14          G25C U63C   0.204
15           U9C C65G   0.159
16           U8C G56U   0.167
17          G21U G40U   0.147
18           U7G A35G   0.916

Data origin: the RNAGym collection of RNA variant scans (doi:10.7554/elife.80360)
